# Tested on: 648629-189-R-J1-PDC spheroids with HUVEC/MSC, viability;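 also: spheroids exposed to agents for seven days before reading; percent of vehicle control luminescence where 100% = DMSO treated spheroids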
# experimental.details: Anticancer human tumor 648629-189-R-J1-PDC patient-derived bladder carcinoma cell line growth inhibition [PI3K]
# experimental.setup: second compound 0.1 µM; first compound 0.0316 µM; hits give low values
Documented viability, T/C across a set of compounds
value.kind: viability, T/C (%)

>  <compound>
CC(Cn1ccc(-c2ccc(C#N)c(Cl)c2)n1)NC(=O)c1cc(C(C)O)[nH]n1 (stereo not drawn) + CC(Nc1ccc2c(c1)OCCn1cc(N3C(=O)OCC3C(F)F)nc1-2)C(N)=O

>  <value.kind>
viability, T/C

>  <measurement>
106

$$$$
>  <compound>
C[C@@H](NC(=O)c1ncnc(N)c1Cl)c1ncc(C(=O)Nc2cc(C(F)(F)F)c(Cl)cn2)s1 + COc1c(OCCCN2CCOCC2)ccc2c3n(c(=NC(=O)c4cnc(N)nc4)nc12)CCN3

>  <value.kind>
viability, T/C

>  <measurement>
66.6

$$$$
>  <compound>
C#Cc1c(F)ccc2cc(O)cc(-c3ncc4c(N5CC6CCC(C5)N6)nc(OCC56CCCN5CC(F)C6)nc4c3F)c12 (stereo not drawn) + Cc1nc(NC(=O)N2CCCC2C(N)=O)sc1-c1ccnc(C(C)(C)C(F)(F)F)c1

>  <value.kind>
viability, T/C

>  <measurement>
101

$$$$
>  <compound>
CCCS(=O)(=O)Nc1ccc(F)c(C(=O)c2c[nH]c3ncc(-c4ccc(Cl)cc4)cc23)c1F + Cc1nc(NC(=O)N2CCCC2C(N)=O)sc1-c1ccnc(C(C)(C)C(F)(F)F)c1

>  <value.kind>
viability, T/C

>  <measurement>
115

$$$$
>  <compound>
C[C@@H](NC(=O)c1ncnc(N)c1Cl)c1ncc(C(=O)Nc2cc(C(F)(F)F)c(Cl)cn2)s1 + CC(Nc1ccc2c(c1)OCCn1cc(N3C(=O)OCC3C(F)F)nc1-2)C(N)=O

>  <value.kind>
viability, T/C

>  <measurement>
103

$$$$
>  <compound>
Cn1ncnc1[C@H]1c2n[nH]c(=O)c3cc(F)cc(c23)N[C@@H]1c1ccc(F)cc1 + Cc1nc(NC(=O)N2CCCC2C(N)=O)sc1-c1ccnc(C(C)(C)C(F)(F)F)c1

>  <value.kind>
viability, T/C

>  <measurement>
80.4

$$$$
>  <compound>
Cn1ncc(Cl)c1-c1cc(C(=O)NC(CN)Cc2cccc(F)c2)sc1Cl (stereo not drawn) + COc1c(OCCCN2CCOCC2)ccc2c3n(c(=NC(=O)c4cnc(N)nc4)nc12)CCN3

>  <value.kind>
viability, T/C

>  <measurement>
67.5

$$$$
>  <compound>
Cn1nccc1Nc1nccc(-c2ccn(C(CO)c3ccc(Cl)c(F)c3)c(=O)c2)n1 (stereo not drawn) + CC(Nc1ccc2c(c1)OCCn1cc(N3C(=O)OCC3C(F)F)nc1-2)C(N)=O

>  <value.kind>
viability, T/C

>  <measurement>
97.2

$$$$
>  <compound>
CC(C)n1nc(-c2ccc3oc(N)nc3c2)c2c(N)ncnc21 + Cc1nc(NC(=O)N2CCCC2C(N)=O)sc1-c1ccnc(C(C)(C)C(F)(F)F)c1

>  <value.kind>
viability, T/C

>  <measurement>
68

$$$$
>  <compound>
C=CC(=O)N1CCN(c2nc(=O)n(-c3c(C)ccnc3C(C)C)c3nc(-c4c(O)cccc4F)c(F)cc23)C(C)C1 (stereo not drawn) + CC(Nc1ccc2c(c1)OCCn1cc(N3C(=O)OCC3C(F)F)nc1-2)C(N)=O

>  <value.kind>
viability, T/C

>  <measurement>
92.4

$$$$
>  <compound>
C#Cc1c(F)ccc2cc(O)cc(-c3ncc4c(N5CC6CCC(C5)N6)nc(OCC56CCCN5CC(F)C6)nc4c3F)c12 (stereo not drawn) + CC(Nc1ccc2c(c1)OCCn1cc(N3C(=O)OCC3C(F)F)nc1-2)C(N)=O

>  <value.kind>
viability, T/C

>  <measurement>
92.7

$$$$
>  <compound>
CC(C)NCC(C(=O)N1CCN(c2ncnc3c2C(C)CC3O)CC1)c1ccc(Cl)cc1 (stereo not drawn) + CC(Nc1ccc2c(c1)OCCn1cc(N3C(=O)OCC3C(F)F)nc1-2)C(N)=O

>  <value.kind>
viability, T/C

>  <measurement>
82.7

$$$$
>  <compound>
Cn1nccc1Nc1nccc(-c2ccn(C(CO)c3ccc(Cl)c(F)c3)c(=O)c2)n1 (stereo not drawn) + CC(Nc1ncnc2nc[nH]c12)c1cc2cccc(Cl)c2c(=O)n1-c1ccccc1

>  <value.kind>
viability, T/C

>  <measurement>
101

$$$$
